Test system: SK-MEL-28
Procedure details: NCI tumour cell line growth inhibition, 48 h
The source made the active and inactive calls. Rule as the data show it: active = GI50 up to about 1.1 µM and inactive = higher.
Respond only with the outcome that fits, drawn from class 1 = active, class 0 = inactive

{"Compound": "COc1cc(C(=O)C(CO)Oc2ccccc2OC)ccc1O (stereo not given)", "Assigned category": "class 0"}
{"Compound": "Cc1cccc2sc(NC(=O)c3cc([N+](=O)[O-])ccc3Cl)nc12", "Assigned category": "class 0"}

With those in mind, consider the next compound.
Qu. Please share the test call associated with C=C1CC(C)(COc2cc(=O)oc3ccccc23)OC1=O (stereo not given) .
Ans. class 0

---

System: PC-3
Procedure details: NCI tumour cell line growth inhibition, 48 h
The source made the active and inactive calls. Rule as the data show it: active = GI50 up to about 1.1 µM and inactive = higher.
Respond only with the outcome that fits, drawn from active, inactive

Field: example entries. Status: answers known.
{"Compound": "CC(=O)Nc1ccc2c3c(cc(O)c2c1)N(C(=O)CCCCCCC(=O)Nc1ccc2c4c(cc(O)c2c1)N(C(=O)OC(C)(C)C)CC4CCl)CC3CCl (stereo not drawn)", "Assigned category": "active"}
{"Compound": "[O-]c1c2cc(-[n+]3c(-c4ccccc4)cc(-c4ccccc4)cc3-c3ccccc3)cc1CO[C@@H](c1ccccc1)[C@H](c1ccccc1)OCCOCCO[C@@H](c1ccccc1)[C@H](c1ccccc1)OC2", "Assigned category": "active"}

With those in mind, consider the next compound.
Qu. Please share the test call associated with Cc1cc(S(=O)(=O)[N-]/C(=N/S(=O)(=O)c2ccc(Cl)cc2)[n+]2ccc(N(C)C)cc2)c(SCC(=O)O)cc1Cl .
Ans. inactive

---

Test system: T47D
Procedure details: NCI tumour cell line growth inhibition, 48 h
Calls of active or inactive are those of the source. Rule as the data show it: active = GI50 up to about 1.1 µM and inactive = higher.
Entries and their measured GI50 follow.

T47D assay, compound Cc1c2cc[n+]([O-])cc2c(C)c2c1[nH]c1ccccc12 , recorded GI50 = 2.14 µM (inactive)

T47D assay, compound O=C(C=P(c1ccccc1)(c1ccccc1)c1ccccc1)c1ccc(-c2ccc(F)cc2F)cc1 , recorded GI50 = 2.33 µM (inactive)

---

Tested on: HOP-92
Procedure details: NCI tumour cell line growth inhibition, 48 h
Active and inactive are the calls of the source. No stated cut-off is given here; in the data, active = GI50 up to about 1.1 µM and inactive = higher.
Respond only with the outcome that fits, drawn from 1 (yes) (active), 0 (no) (inactive)

Field: example entries. Status: answers known.
{"Compound": "Cc1ccnc2nc(-c3ccc4ccccc4c3)cc(O)c12", "System under test": "HOP-92", "Assigned category": "1 (yes)"}
{"Compound": "COc1ccc(OC)c(NC(=O)c2c(Cl)c(Cl)c(Cl)c(Cl)c2-c2nc3ccccc3[nH]2)c1", "System under test": "HOP-92", "Assigned category": "0 (no)"}
{"Compound": "CC1OC2OC3C(OCC(O)C3O)OC(=O)[C@]34CCC(C)(C)CC3C3=CCC5[C@@]6(C)C[C@H](O)[C@H](OC7OC(CO)C(O)C(O)C7OC7OCC(OC(=O)CC(C)(O)CC(=O)OC1C(OC1OC(CO)C(O)C(O)C1O)C2O)C(O)C7O)[C@@](C)(CO)C6CC[C@@]5(C)[C@]3(C)CC4 (some centres undefined)", "System under test": "HOP-92", "Assigned category": "0 (no)"}
{"Compound": "CCc1cccc(CC)c1NC(=O)/C(Cl)=C(/Cl)C(=O)O", "System under test": "HOP-92", "Assigned category": "0 (no)"}
{"Compound": "CCCCc1c(N(C)C)c(OC(C)=O)c(-c2cn(C)c3ccccc23)oc1=O", "System under test": "HOP-92", "Assigned category": "1 (yes)"}
{"Compound": "C=C(Br)CNC(=O)Nc1ccc(Cl)c(Cl)c1", "System under test": "HOP-92", "Assigned category": "0 (no)"}
{"Compound": "Clc1ccc(CN2COc3c(cc(Cl)c4cccnc34)C2)cc1", "System under test": "HOP-92", "Assigned category": "0 (no)"}
{"Compound": "CC(C)(C)c1cc(C2NCCO2)cc(C(C)(C)C)c1O (centres undefined)", "System under test": "HOP-92", "Assigned category": "0 (no)"}

With those in mind, consider the next compound.
Qu. Please share the test call associated with COC(=O)C(CCC1C=CCC1)/N=C\c1ccccc1 (centres undefined) .
Ans. 0 (no)

---

Tested on: MOLT-4
Procedure details: NCI tumour cell line growth inhibition, 48 h
Activity calls are given as the source filed them. No stated cut-off is given here; in the data, active = GI50 up to about 1.1 µM and inactive = higher.
Respond only with the outcome that fits, drawn from label 1 = active, label 0 = inactive

Field: example entries. Status: answers known.
{"Input smiles": "O=C1c2cccnc2-c2nccc3c2c1nc1ccc(Br)cc13", "Assigned category": "label 1"}
{"Input smiles": "CSC1=N/C(=C\\c2ccccc2)C(=O)N1CN1CCCCC1", "Assigned category": "label 0"}
{"Input smiles": "N/C(=N\\Nc1ccc(C(=O)O)cc1)c1cnccn1", "Assigned category": "label 0"}

With those in mind, consider the next compound.
Qu. Please share the test call associated with C=CC[C@]12C[C@@H](C(=O)OC)N(C(=O)OC)[C@H]1N(S(=O)(=O)c1ccccc1)c1ccccc12 .
Ans. label 0

---

Tested on: T47D
Procedure details: NCI tumour cell line growth inhibition, 48 h
The source made the active and inactive calls. Rule as the data show it: active = GI50 up to about 1.1 µM and inactive = higher.
Respond only with the outcome that fits, drawn from active, inactive

{"Molecule": "COC(CC1(CCNc2ccccc2)C(=O)N(COCC[Si](C)(C)C)c2ccccc21)OC (centres undefined)", "System under test": "T47D", "Assigned category": "inactive"}

With those in mind, consider the next molecule.
Qu. Please share the test call associated with C=C1C(=O)OC2C1C(OC(=O)/C(C)=C/C)CC1(C)C(=O)CCC(=C)C21 (centres undefined) .
Ans. inactive

---

Entries and their measured GI50 follow.
Tested on: RXF 631
Procedure details: NCI tumour cell line growth inhibition, 48 h
Active and inactive are the calls of the source. No stated cut-off is given here; in the data, active = GI50 up to about 1.1 µM and inactive = higher.

Field: example entries. Status: answers known.
{"Compound": "O=C(NCCCCNc1cccccc1=O)OCc1ccccc1", "GI50": "> 100 µM (inactive)"}
{"Compound": "CC(C)C1CC[C@@H](C)C[C@@]1(O)CC(N)=O (some centres undefined)", "GI50": "> 100 µM (inactive)"}
{"Compound": "COC(=O)C(=O)C(C(=O)C1=NS(=O)(=O)c2cc(S(N)(=O)=O)c(Cl)cc2N1)c1nc2ccc(C(=O)c3ccccc3)cc2nc1O (centres undefined)", "GI50": "86.9 µM (inactive)"}

Input O=C(Nc1ccc(Cl)cc1Cl)C(=O)C(C(=O)c1ccncc1)C1OC(=O)c2ccccc21 (centres undefined) . Output GI50: > 100 µM (inactive)

Input CC(C)c1cc(C(C)C)c(S(=O)(=O)N=[N+]=[N-])c(C(C)C)c1 . Output GI50: 59.8 µM (inactive)

Input Cc1ccc(NC(=O)c2c(C)nc(=O)n3c2N(/N=C/c2ccc(Cl)cc2)CC3)cc1 . Output GI50: 14.7 µM (inactive)

Input CC(C)(C)C(=C[S+]([O-])/N=C/c1ccccc1)C(C)(C)C (centres undefined) . Output GI50: 38.6 µM (inactive)

Input Cc1ccccc1-n1c(N)c(-c2nc3ccccc3[nH]2)sc1=S . Output GI50: 24.9 µM (inactive)

Input CCOP(=O)(OCC)C1CC(C)OC1=O (centres undefined) . Output GI50: > 100 µM (inactive)

---

Tested on: SNB-75
Procedure details: NCI tumour cell line growth inhibition, 48 h
Activity calls are given as the source filed them. No stated cut-off is given here; in the data, active = GI50 up to about 1.1 µM and inactive = higher.
Endpoint label: GI50

Field: example entries. Status: answers known.
{"Molecule": "COc1ccccc1Cn1nc(OC)c2cc([N+](=O)[O-])ccc21", "System under test": "SNB-75", "Endpoint value": "4.16 µM (inactive)"}
{"Molecule": "C=C[C@H]1CN2CCc3c([nH]c4cc(O)ccc34)[C@@H]2C[C@@H]1C[C@H]1c2[nH]c3ccccc3c2CCN1C", "System under test": "SNB-75", "Endpoint value": "2.11 µM (inactive)"}
{"Molecule": "Cc1ccc2nc(C(C)C)c(=O)[nH]c2c1", "System under test": "SNB-75", "Endpoint value": "42.4 µM (inactive)"}
{"Molecule": "CN(CCNC(=O)c1nn(C)c2c1Cc1ccccc1-2)CCNC(=O)c1nn(C)c2c1Cc1ccccc1-2", "System under test": "SNB-75", "Endpoint value": "14.4 µM (inactive)"}
{"Molecule": "Clc1ccc(C2=NN(c3ccccc3)C3c4cc(Br)ccc4OCC23)cc1 (stereo unspecified)", "System under test": "SNB-75", "Endpoint value": "> 100 µM (inactive)"}
{"Molecule": "Cc1cnc2sn(-c3ccc(Oc4ccccc4)cc3)c(=O)c2c1", "System under test": "SNB-75", "Endpoint value": "17.9 µM (inactive)"}
{"Molecule": "CC(C)(C)N1C=[N+](C(C)(C)C)CC1", "System under test": "SNB-75", "Endpoint value": "75 µM (inactive)"}
{"Molecule": "O=C(O)CCSC(=S)Nc1ccc([N+](=O)[O-])cc1", "System under test": "SNB-75", "Endpoint value": "33.4 µM (inactive)"}

SNB-75 assay, molecule COc1c(C(=O)/C(=N/Nc2ccccc2)C(C)=O)c(O)c(OC)c2occc12 , recorded GI50 = 19.8 µM (inactive)

SNB-75 assay, molecule COC(=O)C1CC2c3c(c4ccccc4n3C)CC(C1=O)N2C (stereo unspecified) , recorded GI50 = 31.5 µM (inactive)

SNB-75 assay, molecule CCC1(C)NN=c2s/c(=C/c3ccc(OC)cc3)c(=O)n2N1 (stereo unspecified) , recorded GI50 = 38.2 µM (inactive)
